MEASUREMENT TYPE: melting point (°C)

INSERT INTO measurements (structure_as_smiles, measurement_type, uom, value_measured) VALUES
  ('O=C(Nc1ccc2c(c1)OCCO2)c1ccc2cc(Br)ccc2c1', 'melting point', '°C', 222.7);

1 = O=C(Nc1ccc2c(c1)OCCO2)c1cc2ncc(C(F)(F)F)cc2s1
2 = CC(C)(C)c1ccc2c(c1)CN[C@H](C(=O)Nc1ccc3c(c1)OCCO3)C2.Cl
q: Of 1 and 2 , which one carries the higher reported melting point? Use the label to indicate which entry you chose.
a: 1

====

MEASUREMENT TYPE: melting point (°C)

INSERT INTO measurements (structure_as_smiles, measurement_type, value_measured) VALUES
  ('CC(=O)Nc1nc2c(NC(=O)c3ccc4cc(Br)ccc4c3)cccc2s1', 'melting point', 241.6),
  ('O=C(Nc1ccc2c(c1)OCCO2)c1cnc2cc(C(F)(F)F)ccc2c1Cl', 'melting point', 296);

These data points were gathered from patent US7553848B2.
